biological target: ADP-ribosylation factor GTPase-activating protein 1 (Rattus norvegicus, UniProt Q62848)
Sequence (Q62848 whole entry): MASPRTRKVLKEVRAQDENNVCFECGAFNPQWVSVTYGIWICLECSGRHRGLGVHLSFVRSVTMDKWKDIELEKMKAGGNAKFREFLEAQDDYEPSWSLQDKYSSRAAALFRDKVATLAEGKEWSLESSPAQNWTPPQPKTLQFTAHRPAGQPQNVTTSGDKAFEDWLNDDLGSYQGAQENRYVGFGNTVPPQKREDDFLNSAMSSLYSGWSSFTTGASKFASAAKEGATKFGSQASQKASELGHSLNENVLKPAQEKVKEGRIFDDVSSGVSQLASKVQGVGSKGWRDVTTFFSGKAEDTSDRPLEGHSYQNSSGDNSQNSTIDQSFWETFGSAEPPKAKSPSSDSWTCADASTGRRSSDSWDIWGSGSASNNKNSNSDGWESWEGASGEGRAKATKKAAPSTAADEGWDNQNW
readout.label: IC50

Record request: IC50 value, item O=NCc1ccc2noc(-c3ccc(Cl)cc3)c2c1 [SMR000549694]
50.7 µM

Same question for C=c1cc2[nH]c(=O)c(=Cc3ccc(-c4cccc(Cl)c4)o3)c(=N)n2o1 please.
> 2.03 µM

Same question for Cc1ccc2nc(SCC(=O)Nc3cccc(Cl)c3)nc(=O)n2c1 [MLS001234985] please.
> 18.3 µM

Same question for CC(=O)c1cccc(NC(=O)c2cccc3c(-c4cnn(C)c4)coc23)c1 [MLS003120506] please.
> 165 µM

Same question for O=C(Nc1ccc(CN2CCOCC2)cc1)c1ccc(-c2cc(Cl)ccc2Cl)o1 please.
> 165 µM

Same question for CC1CC(C)CN(C(=O)COC(=O)c2cc3ccccc3cc2O)C1 (configuration not stated) please.
> 165 µM

Same question for c1ccc(-c2cc(-c3nnc4sc(-c5ccccn5)nn34)[nH]n2)cc1 please.
> 165 µM
